Provenance of the data: ChEMBL document CHEMBL2407030

- target: Neuronal acetylcholine receptor; alpha4/beta2 (Homo sapiens, UniProt P17787+P43681)
- procedure.details: Agonist activity at alpha4beta2 nACHR in human SHEP1 cell membranes assessed as stimulation of calcium flux by FLIPR assay relative to control
- Type: cell-based
Returns true (1) if the recorded Emax is greater than or equal to 60%, and false (0) otherwise.

Use the examples below as a reference point.
compound	class.label
CC(C)NC(=O)[C@H]1C[C@@H]2CNC[C@@H](C2)C1	true (1)
O=C(C1CC1)[C@H]1C[C@H]2CNC[C@H]2C1 (mixture of isomers)	true (1)
CNC(=O)[C@H]1C[C@@H]2CNC[C@@H](C2)C1	true (1)
O=C([C@H]1C[C@@H]1F)N1CC2CNCC(C2)C1 (mixture of isomers)	true (1)

Now for another entry.
Request: Decide: is the reported value of Emax for C[C@H]1C[C@@H]1C(=O)N1CC2CNCC(C2)C1 (mixture of isomers) equal to or greater than 60%?
Result: false (0)
